Quick list: pIC50 per entry.
Biological target: UniProtKB P07384
Assay: Calpain inhibition FRET assay
Type: biochemical
Conditions: Table 2; approximate IC50; read-out: Cal I IC50
pIC50: −log10 of the molar value.
test-readout: pIC50

{"compound": "CC(C)C[C@H](NC(=O)C1OC1c1ccccc1)C(=O)NCCCCNC(=N)N (some centres unmarked)", "assayed-target": "UniProtKB P07384", "sign": "<", "reading": 6.00}
{"compound": "CCOC(=O)[C@H]1O[C@@H]1C(=O)N[C@@H](CC(C)C)C(=O)Nc1c(F)cccc1F", "assayed-target": "UniProtKB P07384", "sign": "<", "reading": 6.00}
{"compound": "NS(=O)(=O)c1ccc(-n2cc(CNC(=O)[C@H](Cc3cscn3)NC(=O)[C@H]3O[C@@H]3C(=O)O)nn2)cc1", "assayed-target": "UniProtKB P07384", "sign": "<", "reading": 6.00}
{"compound": "CC(C)C[C@H](NC(=O)[C@H]1O[C@@H]1C(=O)O)C(=O)NCCCCNS(=O)(=O)c1ccc(F)cc1 [Compound 68]", "assayed-target": "UniProtKB P07384", "sign": "=", "reading": 7.00}
{"compound": "CC(C)C[C@H](NC(=O)[C@H]1O[C@@H]1C(=O)O)C(=O)NCCCCNC(=O)CCCCC1CCSS1 (some centres unmarked) [Compound 26]", "assayed-target": "UniProtKB P07384", "sign": "=", "reading": 6.82}
{"compound": "CCOC(=O)[C@H]1O[C@@H]1C(=O)NC1(C(=O)NCCCCNS(=O)(=O)c2ccc(F)cc2)CCCCC1", "assayed-target": "UniProtKB P07384", "sign": "<", "reading": 6.00}
{"compound": "Cn1cncc1C[C@H](NC(=O)[C@H]1O[C@@H]1C(=O)O)C(=O)Nc1nc(-c2ccc(F)cc2)cs1", "assayed-target": "UniProtKB P07384", "sign": "=", "reading": 5.30}
{"compound": "CCOC(=O)[C@H]1OC1C(=O)N[C@@H](CC(C)C)C(=O)NCCCCNC(=O)CCCC[C@@H]1SC[C@@H]2NC(=O)N[C@@H]21 (some centres unmarked)", "assayed-target": "UniProtKB P07384", "sign": "<", "reading": 6.00}
{"compound": "CCOC(=O)[C@H]1O[C@@H]1C(=O)N[C@@H](CC(C)C)C(=O)Nc1nc(-c2ccc(F)cc2)cs1", "assayed-target": "UniProtKB P07384", "sign": "<", "reading": 6.00}
{"compound": "O=C(NCc1cn(-c2ccc(F)cc2)nn1)[C@H](Cc1cscn1)NC(=O)[C@H]1O[C@@H]1C(=O)O", "assayed-target": "UniProtKB P07384", "sign": "=", "reading": 6.90}
{"compound": "O=C(Nc1nc(-c2ccc(F)cc2)cs1)C(Cc1cnc[nH]1)NC(=O)[C@H]1O[C@@H]1C(=O)O (some centres unmarked) [Compound 30a]", "assayed-target": "UniProtKB P07384", "sign": "=", "reading": 7.00}
{"compound": "CC(C)C[C@H](NC(=O)C1OC1c1ccccc1)C(=O)NCCCCNC(=O)CCCCC1CCSS1 (some centres unmarked)", "assayed-target": "UniProtKB P07384", "sign": "<", "reading": 6.00}
{"compound": "O=C(NCc1cn(-c2c(F)cccc2F)nn1)[C@H](Cc1cscn1)NC(=O)[C@H]1O[C@@H]1C(=O)O", "assayed-target": "UniProtKB P07384", "sign": "<", "reading": 6.00}
{"compound": "CC(C)C[C@H](NC(=O)[C@H]1O[C@@H]1C(=O)O)C(=O)NCc1cn(-c2ccc(F)cc2)nn1", "assayed-target": "UniProtKB P07384", "sign": "=", "reading": 7.52}

----------
Target: papain (Carica papaya (Papaya))
Sequence (P00784 134-345): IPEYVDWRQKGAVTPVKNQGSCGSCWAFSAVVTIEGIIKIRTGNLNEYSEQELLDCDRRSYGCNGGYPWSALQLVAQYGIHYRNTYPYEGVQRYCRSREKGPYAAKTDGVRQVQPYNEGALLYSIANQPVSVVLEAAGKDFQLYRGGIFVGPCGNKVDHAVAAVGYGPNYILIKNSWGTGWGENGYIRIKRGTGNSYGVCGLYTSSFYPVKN
Assay: biochemical
Format: biochemical
Details: apparent equilibrium constant; read-out: K1 Papain
test-readout: Ki (µM)

{"compound": "O=C(NCc1cn(-c2ccc(F)cc2)nn1)[C@H](Cc1cscn1)NC(=O)[C@H]1O[C@@H]1C(=O)O", "assayed-target": "papain (Carica papaya (Papaya))", "reading": 19.2}
{"compound": "CC(C)C[C@H](NC(=O)[C@H]1O[C@@H]1C(=O)O)C(=O)Nc1nc(-c2ccc(F)cc2)cs1 [Compound 24a]", "assayed-target": "papain (Carica papaya (Papaya))", "reading": 1.6}
{"compound": "O=C(O)C1OC1C(=O)N[C@@H](Cc1cscn1)C(=O)Nc1nc(-c2ccc(F)cc2)cs1 (stereo in doubt)", "assayed-target": "papain (Carica papaya (Papaya))", "reading": 5.3}
{"compound": "C#Cc1ccc(-c2csc(NC(=O)[C@H](Cc3cscn3)NC(=O)[C@H]3O[C@@H]3C(=O)O)n2)cc1", "assayed-target": "papain (Carica papaya (Papaya))", "reading": 9.7}

----------
Quick list: IC50 per entry.
Target: full-length human Cal1 (Homo sapiens (Human), UniProt P07384)
Sequence (P07384 whole entry): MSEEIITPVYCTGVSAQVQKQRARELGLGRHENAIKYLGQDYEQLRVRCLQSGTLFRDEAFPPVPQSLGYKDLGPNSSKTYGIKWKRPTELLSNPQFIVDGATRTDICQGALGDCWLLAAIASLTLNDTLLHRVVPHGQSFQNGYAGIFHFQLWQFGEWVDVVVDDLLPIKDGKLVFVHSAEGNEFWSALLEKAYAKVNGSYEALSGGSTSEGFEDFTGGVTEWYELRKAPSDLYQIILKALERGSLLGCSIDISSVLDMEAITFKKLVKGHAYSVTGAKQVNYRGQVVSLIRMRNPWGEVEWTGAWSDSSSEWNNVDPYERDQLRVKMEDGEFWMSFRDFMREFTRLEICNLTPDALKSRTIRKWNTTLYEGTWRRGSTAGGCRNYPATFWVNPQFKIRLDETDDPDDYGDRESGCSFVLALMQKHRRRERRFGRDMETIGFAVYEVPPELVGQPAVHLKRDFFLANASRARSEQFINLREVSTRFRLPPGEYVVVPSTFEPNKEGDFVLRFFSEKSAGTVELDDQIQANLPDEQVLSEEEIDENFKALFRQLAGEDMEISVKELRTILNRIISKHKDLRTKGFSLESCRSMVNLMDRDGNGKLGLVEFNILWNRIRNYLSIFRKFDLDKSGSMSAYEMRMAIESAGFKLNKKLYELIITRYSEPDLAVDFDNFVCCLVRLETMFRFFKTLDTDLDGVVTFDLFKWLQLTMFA
Sequence (P04632 whole entry partner): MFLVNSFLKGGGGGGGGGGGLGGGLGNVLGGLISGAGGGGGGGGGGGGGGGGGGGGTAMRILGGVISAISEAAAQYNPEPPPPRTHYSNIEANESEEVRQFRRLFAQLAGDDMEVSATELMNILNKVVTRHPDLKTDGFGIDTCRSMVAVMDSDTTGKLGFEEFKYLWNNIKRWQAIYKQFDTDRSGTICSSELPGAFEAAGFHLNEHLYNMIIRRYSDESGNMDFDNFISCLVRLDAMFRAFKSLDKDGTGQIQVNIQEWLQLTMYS
Assay: Calpain inhibition FRET assay
Type: biochemical
Details: Table 3, 20 min incubation, FRET substrate, >1: inhibition not quantifiable at 1 μM
test-readout: IC50

{"molecule": "O=C(NCc1cn(-c2ccccc2)nn1)[C@H](Cc1cscn1)NC(=O)[C@H]1O[C@@H]1C(=O)O", "test-readout": "IC50", "reading": "1 µM"}
{"molecule": "NS(=O)(=O)c1ccc(-n2cc(CNC(=O)[C@H](Cc3cscn3)NC(=O)[C@H]3O[C@@H]3C(=O)O)nn2)cc1", "test-readout": "IC50", "reading": "> 1 µM"}
{"molecule": "O=C(Nc1nc(-c2ccc(F)cc2)cs1)[C@H](Cc1c[nH]cn1)NC(=O)[C@@H]1O[C@H]1C(=O)O [Compound 30b]", "test-readout": "IC50", "reading": "> 1 µM"}
{"molecule": "CC(C)C[C@H](NC(=O)[C@@H]1O[C@H]1C(=O)O)C(=O)Nc1c(F)cccc1F [Compound 23b]", "test-readout": "IC50", "reading": "> 1 µM"}

----------
Assay: Acute and chronic toxicity, maximum tolerated dose
Format: in vivo
Conditions: mouse, in vivo; mice; no malaise or death
From the text: For evaluation of acute and chronic toxicity we measured the maximum tolerated dose (MTD) in mice for 30a, 33 and 50.
Quick list: MTD per entry.
test-readout: MTD (mg/kg)

{"compound": "O=C(NCc1cn(-c2ccc(F)cc2)nn1)[C@H](Cc1cscn1)NC(=O)[C@H]1O[C@@H]1C(=O)O [Compound 50]", "units": "mg/kg", "reading": 200}
{"compound": "O=C(O)C1OC1C(=O)N[C@@H](Cc1cscn1)C(=O)Nc1nc(-c2ccc(F)cc2)cs1 (stereo in doubt) [Compound 33]", "units": "mg/kg", "reading": 150}
{"compound": "O=C(Nc1nc(-c2ccc(F)cc2)cs1)C(Cc1cnc[nH]1)NC(=O)[C@H]1O[C@@H]1C(=O)O (stereo partly drawn) [Compound 30a]", "units": "mg/kg", "reading": 100}

----------
Quick list: half-life per entry.
Experiment: Plasma pharmacokinetics after i.p. administration
Format: in vivo
Settings: mouse, ip; plasma, ICR mice

{"compound": "O=C(Nc1nc(-c2ccc(F)cc2)cs1)C(Cc1cnc[nH]1)NC(=O)[C@H]1O[C@@H]1C(=O)O (stereo partly drawn) [Compound 30a]", "half-life": "~36 min"}
{"compound": "O=C(NCc1cn(-c2ccc(F)cc2)nn1)[C@H](Cc1cscn1)NC(=O)[C@H]1O[C@@H]1C(=O)O", "half-life": "~36 min"}
{"compound": "O=C(O)C1OC1C(=O)N[C@@H](Cc1cscn1)C(=O)Nc1nc(-c2ccc(F)cc2)cs1 (stereo in doubt)", "half-life": "~66 min"}

----------
System: APP/PS1 mice
Test: Behavioral rescue assays (contextual fear memory, 2-day RAWM reference memory)
Format: in vivo
Details: APP/PS1 mice, daily treatment from 2 until 7 months

{"compound": "O=C(NCc1cn(-c2ccc(F)cc2)nn1)[C@H](Cc1cscn1)NC(=O)[C@H]1O[C@@H]1C(=O)O [Compound 50]", "reference memory": "ameliorated"}
{"compound": "O=C(O)C1OC1C(=O)N[C@@H](Cc1cscn1)C(=O)Nc1nc(-c2ccc(F)cc2)cs1 (stereo in doubt) [Compound 33]", "reference memory": "ameliorated"}
{"compound": "O=C(Nc1nc(-c2ccc(F)cc2)cs1)C(Cc1cnc[nH]1)NC(=O)[C@H]1O[C@@H]1C(=O)O (stereo partly shown) [Compound 30a]", "reference memory": "ameliorated"}

----------
Molecular target: full-length human Cal1 (Homo sapiens (Human), UniProt P07384)
Test: Calpain inhibition FRET assay
Assay type: biochemical

{"compound": "O=C(NCc1cn(-c2ccc3c(c2)OCO3)nn1)[C@H](Cc1cscn1)NC(=O)[C@H]1O[C@@H]1C(=O)O [Compound 52]", "assayed-target": "full-length human Cal1 (Homo sapiens (Human), UniProt P07384)", "Cal1 inhibition (in words)": "potent activity"}
{"compound": "O=C(NCc1cn(-c2ccc(F)cc2)nn1)[C@H](Cc1cscn1)NC(=O)[C@H]1O[C@@H]1C(=O)O [Compound 50]", "assayed-target": "full-length human Cal1 (Homo sapiens (Human), UniProt P07384)", "Cal1 inhibition (in words)": "potent activity"}
